The measured values listed here are drawn from ChEMBL document CHEMBL1201862.

# Tested on: SW-620
# TEST DETAILS: NCI tumour cell line growth inhibition, 48 h
Calls of active or inactive are those of the source. Cut-off read from the data, not from the text of the source: active = GI50 up to about 1.1 µM and inactive = higher.
Labels: 1 for active, 0 for inactive

• CCCNC1=C2C[C@@H](C)C[C@@H](OC)[C@@H](OC(=O)CCCN)[C@H](C)/C=C(\C)[C@@H](OC(N)=O)[C@H](OC)/C=C\C=C(/C)C(=O)NC(=CC1=O)C2=O = 0
• CCC#CCCCCCCCCC(F)C(=O)O (stereo unspecified) = 0
• CC[C@@]1(O)C(=O)OCc2c1cc1n(c2=O)Cc2c-1nc1ccc(N)cc1c2CC[Si](C)(C)C = 1
• CCOC(=O)c1c(N2CCCC2)ncn(C)c1=S = 0
• COC(=O)C1C(OCc2ccccc2)C2CCC1(OC)C=C2C (stereo unspecified) = 0
• O=C(C#Cc1cnc(O)nc1O)c1ccccc1Cl = 0
• COc1cc2c(c(OC)c1O)-c1ccc(OC)c(=O)cc1[C@@H](NC(=O)C(F)(F)F)CC2 = 1
• C1CNCCN2CCCNCCN(C1)CC2 = 0
• CC(C)=CCC/C(C)=C/CC/C(C)=C/CCN(C)CCO = 0
• COC(=O)CCC1(C)C2CCC1(C)/C(=N/O)C2 (stereo unspecified) = 0
• NC1(CCNC(=O)c2ccccc2)CCN(C(=O)c2ccccc2)CC1 = 0

---

# System: HL-60
# TEST DETAILS: NCI tumour cell line growth inhibition, 48 h
Calls of active or inactive are those of the source. Rule as the data show it: active = GI50 up to about 1.1 µM and inactive = higher.
Labels: active, inactive

- CCOC(=O)NC1CN2CCC1CC2 (stereo not drawn): inactive
- Nc1nc(N)c2c3c(cnc2n1)CC(c1ccccc1)CC3 (stereo not drawn): inactive
- COC(=O)/C(=C1\OC(=O)C(c2ccc(Cl)cc2)=C1O)c1ccc(Cl)cc1: inactive
- CCC1=C(CC2NCCc3ccccc32)CC2c3cc(OC)c(OC)cc3CCN2C1 (stereo not drawn): active
- O=C1CN2Cc3cc(N4CCOCC4)ccc3N=C2N1: inactive
- COc1cc(C2S/C(=C/c3ccccc3)C(=O)N2c2ccc(Cl)c(Cl)c2)cc(OC)c1OC (stereo not drawn): inactive
- CCCCCCCCCCCCCCCC(=O)OCC1OC(n2ccc(N)nc2=O)C(O)C1O (stereo not drawn): active
- C=Cc1nc2nnc(CCCCCCCCc3nnc4nc(C=C)[nH]n34)n2[nH]1: inactive
- Cn1c(=O)nc2n(-c3ccc(O)cc3)c3ccccc3nc-2c1=O: inactive
- Cc1nc(=O)[nH]c2[nH][nH]c(=O)c12: inactive
- CCC(C)(C)NC1=C(NC(C)=O)C(=O)c2ccccc2C1=O: inactive
- COC(=O)C(C(=O)C(=O)Nc1c(Cl)cc([N+](=O)[O-])cc1Cl)c1csc(-n2nc(C3=CCCCC3)cc2-c2ccccc2)n1 (stereo not drawn): inactive
- CCCCCCCCCCc1c2nc(c(CCCCCCCCCC)c3ccc([nH]3)c(CCCCCCCCCC)c3nc(c(CCCCCCCCCC)c4ccc1[nH]4)C=C3)C=C2: inactive
- O=S(=O)(CC(O)C(Cl)(Cl)Cl)NNc1ccccc1 (stereo not drawn): inactive
- O=S1(=O)c2ccccc2C(=NO)c2ccccc21: inactive
- COc1cc(C2c3cc4c(cc3OC(N3CCOCC3)C2C)OCO4)cc(OC)c1OC(C)=O (stereo not drawn): inactive
- CCOC(=O)c1c2c(n3ccccc13)C(=O)c1ccccc1C2=O: inactive
- COC(=O)C(CCc1ccccc1I)C1=CCC2(CC1)OCCO2 (stereo not drawn): active
